Tested on: MALME-3M melanoma
Assay: NCI-60 one-dose screen, 48 h (100 = growth as untreated, 0 = no growth, -100 = all killed)
Settings: 10 µM unless noted
Compounds without any hit were thinned out: in the full panel of roughly 83,000, 20% have a hit. Activity calls are given as the source filed them. Rule for the calls: active = growth percent below 10; inactive = the rest.

compound | growth
COc1ccc(-n2c(/C=C3\C(=O)Nc4ccccc43)ccc2CO)cc1 | 72.2% (inactive)
NC(N)=Nc1ccc(Oc2cccc(NC(N)=Nc3ccc(Br)cc3)c2)cn1 | 69.8% (inactive)
CNC(=O)c1c(NC(=O)c2cccc(C(F)(F)F)c2F)sc2c1CCC(=O)C2 | 6.12% (active)
Cn1ccnc1C(=O)/C=C/c1ccc(CNC(=O)c2ccc(F)cc2)cc1 | 84% (inactive)
NS(=O)(=O)c1ccc(-n2cc(-c3cccc(NC(=O)c4ccc(N5CCOCC5)c(C(F)(F)F)c4)c3)nn2)cc1 | 43.8% (inactive)
COc1ccc(C2c3sc4c(C)cccc4c3Oc3nc(CC(=O)Nc4ccccc4)[nH]c(=O)c32)cc1 (stereo not given) | 98% (inactive)
Cn1cc(-c2nnc(N)nc2-c2c[nH]c3ccc(F)cc23)c2cc(F)ccc21 | 77.7% (inactive)
CCCCCCCn1cc2c(NCCc3ccccc3)ncnc2n1 | 94.4% (inactive)
COC(=O)c1[nH]nc2c1C1(C(=O)c3cccc4cccc1c34)C(C#N)=C(N)O2 (stereo not given) | 103% (inactive)
COc1ccc(NC(=O)CSc2nnc(-c3ccc4nc(-c5ccc(OC)c(OC)c5)[nH]c4c3)o2)cc1OC | 83.3% (inactive)
COc1ccc(N2CCN(C3=C(Cl)C(=O)C(C)=C(C)C3=O)CC2)cc1 | 110% (inactive)
CCOc1cccc(-c2nc3sccn3c2-c2ccnc(S(C)(=O)=O)n2)c1 | 98.8% (inactive)
CNC(=O)c1cc(Oc2ccc3nc(NC(=O)c4cccc(OC(F)(F)F)c4)sc3c2)ccn1 | 76.8% (inactive)
CCNC(=O)N1CCc2cc(OC)c(OCCc3ccc(OC)nc3)cc2C1c1ccc(OC)cc1C (stereo not given) | 49.5% (inactive)
COc1ccc(/C=C/C(=O)c2cc(S(N)(=O)=O)c(OC)cc2OC)cc1 | 98% (inactive)
O=C1CCCC2=C1C(c1c[nH]c3ccc(Br)cc13)Cc1cc(Br)ccc1N2 (stereo not given) | 49.3% (inactive)
O=C(CCC(=O)N1CCOCC1)OCCCCCCSc1ccc([N+](=O)[O-])c2nonc12 | -81.2% (active)
N#Cc1cccc(NC(=O)c2cc(-c3ccc(F)cc3F)ccc2O)c1 | -9.34% (active)
Cn1ccnc1C(=O)/C=C/c1ccc(CNC(=O)c2c(F)c(F)c(F)c(F)c2F)cc1 | 97% (inactive)
CC(C)(C)n1nnnc1C(Nc1cccc2c1OCO2)c1cc2cccc3ccc4cccc1c4c32 (stereo not given) | 93.2% (inactive)
